# Target desc: T1, hVEGF-A (8-109) (human, UniProt P15692 214-315)
# T1 sequence (looked up): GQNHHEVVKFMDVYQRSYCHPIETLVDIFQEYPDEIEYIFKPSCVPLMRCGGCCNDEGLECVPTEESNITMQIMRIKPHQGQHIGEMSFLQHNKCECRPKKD
# Experiment notes: phage competition ELISA (clone on phage; the concentration varied on the axis is that of hVEGF (8-109))
Readout label: IC50 (read off the curve)

Answer with the recorded IC50 (read off the curve) of GCDVMQPYWGCEMDFDCLAGCICHWYNSCGTS (designed binder) [9.63.44-8] only.
~0.02 nM

Answer with the recorded IC50 (read off the curve) of GCDVMQPYWGCEMDFDCLAGCICHWYNSCGWK (designed binder) [9.63.44-14 (SEQ ID NO: 532)] only.
~0.07 nM

Answer with the recorded IC50 (read off the curve) of GCDVMQPYWGCEMDFDCLAGCVCHWYNSCGPL (designed binder) [9.63.44-12] only.
~0.1 nM

Answer with the recorded IC50 (read off the curve) of GCDVMQPYWGCEMDFDCLVGCVCHWYNSCGDE (designed binder) [9.63.44-10] only.
~5 nM

Answer with the recorded IC50 (read off the curve) of GCDVMQPYWGCEMDFDCLAGCVCHWYNSCGQF (designed binder) [9.63.44-13] only.
~0.3 nM

Answer with the recorded IC50 (read off the curve) of GCDVMQPYWGCEMDFDCLAGCICHWYNSCGLQ (designed binder) [9.63.44-9] only.
~0.03 nM
